Kindly supply the reported EC50 values for the records listed here.
# Measured on: B2-AR (Homo sapiens)
# Construct: expressed in transfected cells; host or cells: CHO-K1
# Sequence (P07550 whole entry, species assumed): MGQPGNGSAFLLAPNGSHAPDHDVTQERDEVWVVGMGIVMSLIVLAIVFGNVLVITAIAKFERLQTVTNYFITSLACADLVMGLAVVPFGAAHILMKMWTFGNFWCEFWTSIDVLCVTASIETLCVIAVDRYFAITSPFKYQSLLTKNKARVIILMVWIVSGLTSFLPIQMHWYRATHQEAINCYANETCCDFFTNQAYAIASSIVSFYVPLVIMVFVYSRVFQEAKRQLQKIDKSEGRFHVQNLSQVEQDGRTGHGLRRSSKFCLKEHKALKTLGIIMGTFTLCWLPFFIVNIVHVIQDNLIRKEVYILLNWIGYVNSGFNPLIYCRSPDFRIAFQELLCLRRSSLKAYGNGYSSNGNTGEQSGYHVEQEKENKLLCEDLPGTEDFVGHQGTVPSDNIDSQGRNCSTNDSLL
# Protocol text: cAMP Gs dynamic HTRF assay, cells expressing beta-adrenergic receptor (CHO-K1), B2-AR
# Type: cell-based
# Assay conditions: CHO-K1 cells, cAMP HTRF; read-out: pEC50 [B2-AR] (converted)
# Protocol: cAMP homogeneous time-resolved fluorescence (HTRF): experimental methods. Compound efficacy is determined using the cAMP Gs dynamic HTRF assay (Cisbio, catalog #62AM4PEC) largely following the manufacturer's instructions, also detailed below. Standard serial dilution curves are 10-point, 5-fold dilutions starting from a highest concentration of 10 μM. […]

Go through the list and state EC50 for each entry.
1. Cc1ncccc1[C@@H](O)CNCC(C)C [I-183]
2. Cc1nc(N)ccc1[C@@H](O)CNC1(C)CCC1 [I-154]
3. CCC(C)(C)NC[C@H](O)c1cccnc1C [I-165]
4. O[C@@H](CNC1CC1)c1ccc(Cl)c2[nH]ncc12 [I-121]
5. COc1ccnc2ccc([C@@H](O)CNC(C)(C)C)cc12 [I-74]
6. Cc1cc([C@@H](O)CNC(C)(C)C)c2cn[nH]c2n1 [I-67]
7. CC1(NC[C@H](O)c2cccc3[nH]nc(F)c23)CCC1 [I-130]

// result
["> 1000 nM", "< 10 nM", "100 to 1000 nM", "< 10 nM", "> 1000 nM", "< 10 nM", "< 10 nM"]

Go through the list and state EC50 for each entry.
1. CC(C)(C)C(C)(C)NC[C@H](O)c1ccc(F)c2[nH]ncc12 [I-8]
2. CCC(C)(C)NC[C@H](O)c1cc(F)cc2[nH]ncc12 [I-51]
3. CC(C)(C)NC[C@H](O)c1cccc2[nH]nc(C(N)=O)c12 [I-95]
4. Cn1nc(F)c2c([C@@H](O)CNC(C)(C)C)cccc21 [I-55]

// result
< 10 nM
< 10 nM
100 to 1000 nM
< 10 nM

Go through the list and state EC50 for each entry.
1. Cc1nc(N)c(F)cc1[C@@H](CO)NC(C)(C)C [I-179]
2. Cc1n[nH]c2cccc([C@@H](O)CNC(C)(C)CO)c12 [I-173]
3. CC(C)[C@H](C)NC[C@H](O)c1ccc(F)c2[nH]ncc12 [I-36]
4. CC(C)NC[C@H](O)c1cncc2[nH]ncc12 [I-159]

// result
1: > 1000 nM; 2: 100 to 1000 nM; 3: < 10 nM; 4: 100 to 1000 nM

Go through the list and state EC50 for each entry.
1. CC(C)CNC[C@H](O)c1cccc2[nH]ncc12 [I-133]
2. Cc1nc(N)c(Cl)cc1[C@@H](O)CNC(CO)CO [I-145]
3. CC1(NC[C@H](O)c2cccc3[nH]nc(Cl)c23)CCC1 [I-96]

// result
1: < 10 nM; 2: > 1000 nM; 3: < 10 nM

---

# Measured on: B2-AR (Homo sapiens)
# Construct: expressed in transfected cells; host or cells: CHO-K1
# Protocol text: cAMP Gs dynamic HTRF assay, cells expressing beta-adrenergic receptor (CHO-K1), B2-AR
# Format: cell-based
# Assay conditions: CHO-K1, CHO-K1 cells, relative to full agonist isoproterenol; read-out: Emax (% iso) (%) [B2-AR]
Measurement name: Emax

The examples below pair each entry with its known result.
In [3]: df
Out[3]:
                               smiles_str  measured_value
0    O[C@@H](CNC1CCC1)c1cccc2[nH]cc(F)c12           > 90%
1  Cc1cc([C@@H](O)CNC(C)(C)C)c2cn[nH]c2n1           > 90%
2   CC(C)(C)NC[C@H](O)c1cccc2c(F)n[nH]c12       50 to 70%
3   CC(C)CNC[C@H](O)c1cc(C#N)cc2[nH]ncc12       70 to 90%
4     O[C@@H](CNC1CC1)c1cccc2[nH]cc(F)c12           > 90%

Go through the list and state Emax for each entry.
1. CC(C)(C)NC[C@H](O)c1cc(C2CC2)cc2[nH]ncc12
2. CC(C)NC[C@H](O)c1ccc(Cl)c2[nH]ncc12
3. CC1(NC[C@H](O)c2cccc3[nH]nc(F)c23)CC1
4. CC(C)(C)NC[C@H](O)c1ccc2ncncc2c1
5. C[C@H](NC[C@H](O)c1cc(C#N)cc2[nH]ncc12)C(C)(C)C

// result
["50 to 70%", "70 to 90%", "> 90%", "50 to 70%", "70 to 90%"]

---

# Measured on: B1-AR (Homo sapiens)
# Construct: expressed in transfected cells; host or cells: CHO-K1
# Protocol text: cAMP Gs dynamic HTRF assay, cells expressing beta-adrenergic receptor (CHO-K1), B1-AR
# Type: cell-based
# Assay conditions: cAMP HTRF, read-out: pEC50 [B1-AR] (converted)
Measurement name: EC50

Go through the list and state EC50 for each entry.
1. CC(C)(C)CNC[C@H](O)c1cc(C#N)cc2[nH]ncc12 [I-69]
2. CC(C)(C)CNC[C@H](O)c1ccc(F)c2[nH]ncc12 [I-87]
3. Cc1nc(N)c(Cl)cc1[C@@H](O)CNC1COC1 [I-146]
4. CC(C)[C@H](C)NC[C@H](O)c1ccc(F)c2[nH]ncc12 [I-36]

// result
1. > 1000 nM
2. 100 to 1000 nM
3. > 1000 nM
4. < 10 nM

Go through the list and state EC50 for each entry.
1. CC(C)CNC[C@H](O)c1cncc2[nH]ncc12 [I-163]
2. CC[C@H](C)NC[C@H](O)c1cccc2[nH]nc(F)c12 [I-35]

// result
1: > 1000 nM; 2: < 10 nM

---

# Measured on: B1-AR (Homo sapiens, UniProt P08588)
# Construct: expressed in transfected cells; host or cells: CHO-K1
# Sequence (P08588 whole entry, species assumed): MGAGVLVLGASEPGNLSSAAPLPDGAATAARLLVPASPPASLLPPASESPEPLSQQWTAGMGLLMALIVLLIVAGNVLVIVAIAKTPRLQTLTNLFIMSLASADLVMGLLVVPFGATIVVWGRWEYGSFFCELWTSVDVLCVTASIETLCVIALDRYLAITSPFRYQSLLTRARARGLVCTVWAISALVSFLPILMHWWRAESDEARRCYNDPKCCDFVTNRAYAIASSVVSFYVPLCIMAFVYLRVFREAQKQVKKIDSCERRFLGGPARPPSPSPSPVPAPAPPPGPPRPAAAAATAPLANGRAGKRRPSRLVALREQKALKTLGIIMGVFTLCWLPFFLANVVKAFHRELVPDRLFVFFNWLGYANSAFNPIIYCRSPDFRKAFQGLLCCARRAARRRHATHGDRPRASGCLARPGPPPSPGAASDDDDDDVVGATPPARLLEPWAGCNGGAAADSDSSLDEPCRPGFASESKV
# Protocol text: cAMP Gs dynamic HTRF assay, cells expressing beta-adrenergic receptor (CHO-K1), B1-AR
# Type: cell-based
# Assay conditions: relative to full agonist isoproterenol, read-out: Emax (% iso) (%) [B1-AR]
Kindly supply the reported Emax values for the records listed here.

The examples below pair each entry with its known result.
>>> print(df.to_string())
                                 smiles_str  measured_value
0  Cn1c(=O)[nH]c2cccc([C@@H](O)CNC(C)(C)C)c21       70 to 90%
1  CC(C)[C@H](C)NC[C@H](O)c1ccc(F)c2[nH]ncc12       70 to 90%
2  CC(C)(C)NC[C@H](O)c1cc(OC(F)F)cc2[nH]ncc12       70 to 90%
3   CC[C@H](C)NC[C@H](O)c1cc(F)cc2[nH]ncc12           > 90%
4       Cc1cc([C@@H](O)CNC2CC2)c2cn[nH]c2c1       70 to 90%

Go through the list and state Emax for each entry.
1. Cc1ncccc1[C@@H](O)CNC1(C)CC1
2. CC(C)CNC[C@H](O)c1cncc2[nH]ncc12
3. Cc1nc(N)c(Cl)cc1[C@H](CO)NC1CC(F)(F)C1
4. CC1(NC[C@H](O)c2ccc(Cl)c3[nH]ncc23)CCC1
5. C[C@H](NC[C@H](O)c1ccc(Cl)c2[nH]ncc12)C(C)(C)C
6. CC(C)C(C)(C)NC[C@H](O)c1cc(F)cc2[nH]ncc12

// result
1: > 90%; 2: 70 to 90%; 3: < 50%; 4: 70 to 90%; 5: 50 to 70%; 6: > 90%

Go through the list and state Emax for each entry.
1. CCc1n[nH]c2cccc([C@@H](O)CNC(C)(C)C)c12
2. CC(C)(NC[C@H](O)c1cc(F)cc2[nH]ncc12)C1CC1
3. CCC(CC)NC[C@H](O)c1cc(F)cc2[nH]ncc12
4. COc1ccc(C[C@@H](C)NC[C@H](O)c2cc(F)cc3[nH]ncc23)cc1
5. Cc1n[nH]c2cccc([C@@H](O)CNC3(C)CC3)c12
6. CC[C@@H](C)NC[C@H](O)c1cc(F)cc2[nH]ncc12

// result
1: 70 to 90%; 2: > 90%; 3: > 90%; 4: > 90%; 5: 70 to 90%; 6: > 90%

Go through the list and state Emax for each entry.
1. CC(C)(CO)NC[C@H](O)c1cccc2[nH]nc(F)c12
2. CC(C)(NC[C@H](O)c1cccc2[nH]ncc12)C1CC1

// result
> 90%
> 90%

---

# Measured on: B1-AR (Homo sapiens, UniProt P08588)
# Construct: expressed in transfected cells; host or cells: CHO-K1
# Protocol text: cAMP Gs dynamic HTRF assay, cells expressing beta-adrenergic receptor (CHO-K1), B1-AR
# Format: cell-based
# Assay conditions: cAMP HTRF, read-out: pEC50 [B1-AR] (converted)
Measurement name: EC50

The examples below pair each entry with its known result.
>>> df
                                 smiles_str                           measured_on  measurement_name  measured_value
0  Cn1ccc(CNC[C@H](O)c2ccc(F)c3[nH]ncc23)n1  B1-AR (Homo sapiens, UniProt P08588)              EC50     0.1 to 1 µM
1    CC1(NC[C@H](O)c2cccc3[nH]cc(F)c23)CCC1  B1-AR (Homo sapiens, UniProt P08588)              EC50       < 0.01 µM
2       CCC(C)(C)NC[C@H](O)c1cc(Cl)c(N)nc1C  B1-AR (Homo sapiens, UniProt P08588)              EC50  0.01 to 0.1 µM
3          CC(C)(C)NC[C@H](O)c1ccc2ncncc2c1  B1-AR (Homo sapiens, UniProt P08588)              EC50          > 1 µM
4      O[C@@H](CNC1CCC1)c1cccc2[nH]cc(F)c12  B1-AR (Homo sapiens, UniProt P08588)              EC50       < 0.01 µM
5  COc1ccc(C[C@@H](C)NC[C@H](O)c2cc(F)cc3[nH]ncc23)cc1  B1-AR (Homo sapiens, UniProt P08588)              EC50       < 0.01 µM
6    Cn1ncc2c([C@@H](O)CNC(C)(C)C)ccc(F)c21  B1-AR (Homo sapiens, UniProt P08588)              EC50  0.01 to 0.1 µM
7      CCC(CC)NC[C@H](O)c1cccc2[nH]nc(F)c12  B1-AR (Homo sapiens, UniProt P08588)              EC50  0.01 to 0.1 µM

Go through the list and state EC50 for each entry.
1. Cc1nc(N)ccc1[C@@H](O)CNC(C)(C)C
2. Cc1ccc2cc([C@@H](O)CNC(C)(C)C)ccc2n1
3. CC(C)(C)NC[C@H](O)c1cc(C2CC2)cc2[nH]ncc12
4. CC(C)(C)CNC[C@H](O)c1cc(F)cc2[nH]ncc12
5. CC(C)C(C)(C)NC[C@H](O)c1cc(F)cc2[nH]ncc12

// result
["0.01 to 0.1 µM", "> 1 µM", "> 1 µM", "0.01 to 0.1 µM", "0.01 to 0.1 µM"]

Go through the list and state EC50 for each entry.
1. CC1(NC[C@H](O)c2cccc3[nH]nc(Cl)c23)CC1
2. CCC(CC)NC[C@H](O)c1cc(F)cc2[nH]ncc12
3. CC1(NC[C@H](O)c2ccc(Cl)c3[nH]ncc23)CCC1
4. Cc1ncccc1[C@@H](O)CNCC(C)C

// result
["< 0.01 µM", "< 0.01 µM", "< 0.01 µM", "> 1 µM"]
